Test System: human chemokine receptor 2 isoform B (Homo sapiens)
Assay Details: Calcium mobilization assay (FLIPR, CHOK1-CCR2B-A5 cells, 20 nM MCP-1)
Run Conditions: Ca mobilisation assay, CCR2, antagonist activity vs 20 nM MCP-1
pIC50: −log10 of the molar value.
Outcome label depends on pIC50 relative to 7: at/above gives 1, below gives -1.

Some entries whose results are on file:
Compound: CC1CN(C(=O)/C=C/c2ccc(Cl)c(Cl)c2)CCN(CCCN2CCCCC2)C1=O (racemic)
Classification: -1
//
Compound: C[C@@H]1CN(CC(O)CN2CCN(C(=O)C=Cc3ccc(Cl)c(Cl)c3)CCC2=O)CC[C@@H]1O (mixture of isomers)
Classification: -1
//
Compound: O=C(/C=C/c1ccc(Cl)c(Cl)c1)N1CCC(=O)N(CC(O)CN2CCC(O)C3(CC3)C2)CC1 (racemic)
Classification: -1

Kindly review the next compound as well.
Lookup: Is the recorded value of pIC50 equal to or greater than 7 for this compound? CC1(CO)CCN(CC(O)CN2CCN(C(=O)C=Cc3ccc(Cl)c(Cl)c3)CCC2=O)CC1O (single isomer, unassigned) [Example 331]
Found: 1

====

Test System: human chemokine receptor 2 isoform B (Homo sapiens, UniProt P41597)
Assay Details: Calcium mobilization assay (FLIPR, CHOK1-CCR2B-A5 cells, 20 nM MCP-1)
Run Conditions: Ca mobilisation assay, CCR2, antagonist activity vs 20 nM MCP-1
Protocol: CHOK1-CCR2B-A5 cells (from Euroscreen) stably overexpressing the human chemokine receptor 2 isoform B were cultured in Nutrient Hams F12 medium supplemented with 5% FBS, 100 U/ml penicillin, 100 μg/ml streptomycin, 400 μg/ml G418 and 5 μg/ml puromycin. […] Test compounds were added to the assay plate and agonist activity was monitored as fluorescence for 80 seconds with a FLIPR (488 nm excitation; 510-570 nm emission; Molecular Devices). […]
The following ranges of IC50 define the classes used here: lower bin = under 200 nM, middle bin = from 200 nM up to 600 nM, upper bin = 600 nM and over

The examples below pair each entry with its known result.
Molecule: O=C(/C=C/c1ccc(Cl)c(Cl)c1)N1CCC(=O)N(CC(O)CN2CCC(O)CC2)CC1 (stereo not drawn)
Classification: upper bin

Molecule: COC1CCN(CCCN2CCN(C(=O)/C=C/c3ccc(Cl)c(Cl)c3)CCC2=O)CC1
Classification: upper bin

Molecule: C[C@@H]1C[C@H](O)CN(CC(O)CN2CCN(C(=O)/C=C/c3ccc(F)c(F)c3)CCC2=O)C1 (mixture of isomers)
Classification: middle bin

Molecule: O=C(/C=C/c1ccc(Cl)c(Cl)c1)N1CCC(=O)N(CCCN2CCSCC2)CC1
Classification: lower bin

Molecule: CN(CCCCN1CCN(C(=O)/C=C/c2ccc(Cl)c(Cl)c2)CCC1=O)C1CCOCC1
Classification: lower bin

Molecule: C[C@@]1(CO)CCN(CCCN2CCN(C(=O)/C=C/c3ccc(F)c(Cl)c3)CCC2=O)C[C@H]1O (racemic)
Classification: lower bin

Lookup: Band for C[C@@H]1C[C@H](O)CN(C[C@H](O)CN2CCN(C(=O)/C=C/c3ccc(Cl)c(Cl)c3)CCC2=O)C1 (mixture of isomers) ?
Found: lower bin

Lookup: Field: class (IC50) — entry: CC1CCN(CCCN2CCN(C(=O)/C=C/c3ccc(Cl)c(Cl)c3)CCC2=O)CC1O (racemic)
Found: lower bin

Lookup: State the class of the molecule shown: CC1(CO)CCCN1CC(O)CN1CCN(C(=O)C=Cc2ccc(Cl)c(Cl)c2)CCC1=O (racemic)
Found: upper bin

Lookup: Class label required: O=C(/C=C/c1ccc(F)c(Cl)c1)N1CCC(=O)N(CCCCN2CC[C@@H](O)[C@H](F)C2)CC1 (racemic)
Found: middle bin

====

Test System: human chemokine receptor 2 isoform B (Homo sapiens, UniProt P41597)
Construct: host or cells: CHOK1-CCR2B-A5 (CHO-K1)
Sequence (P41597 1-360 isoform P41597-2): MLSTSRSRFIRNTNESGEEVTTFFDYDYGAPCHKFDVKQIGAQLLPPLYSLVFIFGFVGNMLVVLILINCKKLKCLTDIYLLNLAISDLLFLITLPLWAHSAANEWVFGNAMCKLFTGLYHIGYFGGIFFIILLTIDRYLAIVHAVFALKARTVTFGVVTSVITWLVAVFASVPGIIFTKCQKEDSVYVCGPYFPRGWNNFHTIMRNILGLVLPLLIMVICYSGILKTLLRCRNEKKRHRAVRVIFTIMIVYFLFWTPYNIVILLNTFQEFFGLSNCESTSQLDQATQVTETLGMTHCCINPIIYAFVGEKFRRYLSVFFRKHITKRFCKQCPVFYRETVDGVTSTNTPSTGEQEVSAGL
Assay Details: Calcium mobilization assay (FLIPR, CHOK1-CCR2B-A5 cells, 20 nM MCP-1)
Format: cell-based
Run Conditions: Ca mobilisation assay, CCR2, antagonist activity vs 20 nM MCP-1
Experimental: CHOK1-CCR2B-A5 cells (from Euroscreen) stably overexpressing the human chemokine receptor 2 isoform B were cultured in Nutrient Hams F12 medium supplemented with 5% FBS, 100 U/ml penicillin, 100 μg/ml streptomycin, 400 μg/ml G418 and 5 μg/ml puromycin. […] Test compounds were added to the assay plate and agonist activity was monitored as fluorescence for 80 seconds with a FLIPR (488 nm excitation; 510-570 nm emission; Molecular Devices). […]
Definition: the class of an entry is the range in low-valued: < 60 nM; mid-valued: ≥ 60 nM and < 400 nM; high-valued: ≥ 400 nM that contains its IC50.

Completed entries (count: 8):
Compound: CC(=O)NC1CCN(CC(O)CCN2CCN(C(=O)/C=C/c3ccc(Cl)c(Cl)c3)CCC2=O)CC1 (racemic)
Classification: mid-valued

Compound: O=C(/C=C/c1ccc(Cl)c(F)c1)N1CCC(=O)N(CCCCN2CC(O)CCC2CO)CC1 (racemic)
Classification: mid-valued

Compound: CC(=O)NC1CCN(CCCN2CCN(C(=O)/C=C/c3ccc(Cl)c(Cl)c3)CCC2=O)C1 (racemic)
Classification: high-valued

Compound: CC1(C)CCN(C[C@H](O)CN2CCN(C(=O)/C=C/c3ccc(F)c(Cl)c3)CCC2=O)CC1O (stereo partly drawn)
Classification: low-valued

Compound: O=C(C=Cc1ccc(Cl)c(Cl)c1)N1CCC(=O)N(CCCN2CCC(CO)C(O)C2)CC1 (mixture of isomers)
Classification: mid-valued

Compound: O=C(/C=C/c1ccc(F)c(Cl)c1)N1CCC(=O)N(CCCN2CCC(CO)CC2)CC1
Classification: high-valued

Compound: C[C@]1(CO)CCN(CCCN2CCN(C(=O)/C=C/c3ccc(F)c(Cl)c3)CCC2=O)C[C@H]1O (racemic)
Classification: low-valued

Compound: O=C(C=Cc1ccc(Cl)c(Cl)c1)N1CCC(=O)N(CCCNC2CCC(O)(c3ccccn3)CC2)CC1 (stereo not drawn)
Classification: mid-valued

Lookup: Hi, small favor: classify O=C(C=Cc1ccc(Cl)c(Cl)c1)N1CCC(=O)N(CCNC2CCC(O)(c3ccccn3)CC2)CC1 (stereo not drawn) by its IC50 when you get a moment.
Found: high-valued

Lookup: Any idea which band O=C(/C=C/c1ccc(Cl)c(Cl)c1)N1CCC(=O)N(C[C@@H](O)CN2CCC3(CC3)C(O)C2)CC1 (stereo partly drawn) [Example 332] is in?
Found: low-valued

Lookup: Assign a category based on measured IC50 for C[C@@H]1CN(CCCCN2CCN(C(=O)/C=C/c3ccc(Cl)c(Cl)c3)CCC2=O)CC[C@H]1O (racemic) and give only the class name.
Found: mid-valued

Lookup: Looking at O=C(/C=C/c1ccc(Cl)c(Cl)c1)N1CCC(=O)N(CCCNC2CCOCC2)CC1 , which class would you pick?
Found: high-valued

Lookup: Which category does the recorded IC50 put CC1(CO)CCCN(CCCCN2CCN(C(=O)/C=C/c3ccc(Cl)c(Cl)c3)CCC2=O)C1 (racemic) in?
Found: mid-valued

Lookup: Sort into band: O=C(/C=C/c1ccc(Cl)c(Cl)c1)N1CCC(=O)N(CCCN2CCC(O)(c3ccccn3)CC2)CC1
Found: mid-valued

====

Reported log10 of IC50 values follow for various molecules
Test System: human chemokine receptor 2 isoform B (Homo sapiens, UniProt P41597)
Assay Details: Calcium mobilization assay (FLIPR, CHOK1-CCR2B-A5 cells, 20 nM MCP-1)
Run Conditions: Ca mobilisation assay, CCR2, antagonist activity vs 20 nM MCP-1
Values are log10 of IC50 in nM.

Molecule: C[C@@H]1CN(CCCN2CCN(C(=O)/C=C/c3ccc(Cl)c(Cl)c3)CCC2=O)CC[C@@H]1O (racemic)
Result Number: 2.12

Lookup: Enter reported log10 of IC50 observed with human chemokine receptor 2 isoform B (Homo sapiens, UniProt P41597) for CC1C(O)CCCN1CCCN1CCN(C(=O)C=Cc2ccc(F)c(Cl)c2)CCC1=O (mixture of isomers) [Example 209]
Found: 3.14

Lookup: Entry O=C(C=Cc1ccc(Cl)c(Cl)c1)N1CCC(=O)N(CCNC2CC3CCC2C3)CC1 (racemic) , system human chemokine receptor 2 isoform B (Homo sapiens, UniProt P41597): what log10 of IC50 was measured?
Found: 2.81
